Biological target: NCp9 (NCp7-SP2) (HIV-1 NL4-3, UniProt P12493 378-448)
Assay: fluorescence anisotropy
reported-endpoint: Kd

Which value of Kd has been reported for AGCTGCTTTTTGCCTGTACT (ssDNA) [JL936 (20-nt ssDNA)] in the records?
45 nM
